Target: recombinant human IGFBP-3 (human, UniProt P17936 28-291)
Sequence (P17936 28-291 limits assumed): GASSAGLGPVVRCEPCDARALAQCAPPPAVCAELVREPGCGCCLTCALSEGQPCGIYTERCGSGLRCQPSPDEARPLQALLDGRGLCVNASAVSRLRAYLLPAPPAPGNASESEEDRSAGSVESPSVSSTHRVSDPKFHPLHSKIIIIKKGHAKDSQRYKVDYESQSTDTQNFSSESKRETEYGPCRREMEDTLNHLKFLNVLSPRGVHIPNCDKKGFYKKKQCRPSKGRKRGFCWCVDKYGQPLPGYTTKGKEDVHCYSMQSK
Assay: BIAcore competition, IGFBP-3 to IGF-1
Positions of bridges follow the written chain, without caps; N, C: chain ends.
value_type: IC50 (nM)
One number for each entry, in nM.

Bench note: what IC50 did Ac-SEEVCWPVAEWYLCN-NH2 (disulfide 5-14; SMILES CC(=O)N[C@@H](CO)C(=O)N[C@@H](CCC(=O)O)C(=O)N[C@@H](CCC(=O)O)C(=O)N[C@H](C(=O)N[C@H]1CSSC[C@@H](C(=O)N[C@@H](CC(N)=O)C(N)=O)NC(=O)[C@H](CC(C)C)NC(=O)[C@H](Cc2ccc(O)cc2)NC(=O)[C@H](Cc2c[nH]c3ccccc23)NC(=O)[C@H](CCC(=O)O)NC(=O)[C@H](C)NC(=O)[C@H](C(C)C)NC(=O)[C@@H]2CCCN2C(=O)[C@H](Cc2c[nH]c3ccccc23)NC1=O)C(C)C) [BP3-40] show?
660
